Recorded measurements of Max. Fit, one per entry
# Target Or Test System: 17β-HSD10 (Homo sapiens, UniProt Q99714)
# Construct: Histev (histidine tag with TEV site) (N, cleaved yes); made in house; host or cells: E. coli BL21-CodonPlus
# Run Description: 17β-HSD10 (ABAD) enzyme inhibition assay, NADH oxidation read at 340 nm (primary screen and dose response)
# Type: biochemical
# Cond: recombinant 17βHSD10 enzyme assay, curve fit
# Protocol: Cell pellets of E. coli BL21-CodonPlus cells containing Histev-17β-HSD10 protein were re-suspended for 30 min, 4° C., in lysis buffer (20 mM NaH2PO4, 30 mM imidazole, 500 mM NaCl, 10% (v/v) glycerol, pH 7.5) with the addition of complete ethylenediaminetetraacetic acid (EDTA)-free protease inhibitor tablets (Roche), lysozyme (1 mg/mL), deoxyribonuclease (DNase) (20 μg/mL) and Triton X-100 (0.1% (v/v)). […]
Note: the reply should be a number with no unit written.

Known results for compounds:
compound=CC(C)CN(C(=O)c1ccccc1F)c1cccc(N(C)CCO)c1 target_or_test_system="17β-HSD10 (Homo sapiens, UniProt Q99714)" measured_number=100
compound="O=C(c1sccc1Cl)N1CCC[C@H]1c1ccccc1-c1cc(O)ccc1F (single isomer, unassigned) [ESC1002842]" target_or_test_system="17β-HSD10 (Homo sapiens, UniProt Q99714)" measured_number=98
compound="Cc1ncc(CN(C)c2cccc(N(CC(C)C)C(=O)c3ccccc3F)c2)[nH]1 [ESC1002203]" target_or_test_system="17β-HSD10 (Homo sapiens, UniProt Q99714)" measured_number=98
compound="Cc1ccsc1C(=O)N1CCC[C@H]1c1ccccc1-c1cccc(C(F)(F)F)c1 [ESC1002320]" target_or_test_system="17β-HSD10 (Homo sapiens, UniProt Q99714)" measured_number=101

Given item Cc1ccsc1C(=O)N1CCC[C@H]1c1ccccc1-c1ccc(N2CCOCC2)cc1 , the value recorded as its Max. Fit is 98

###

# key: entry, value: pEC50
# Target Or Test System: 17β-HSD10 (Homo sapiens, UniProt Q99714)
# Construct: Histev (histidine tag with TEV site) (N, cleaved yes)
# Sequence (Q99714 1-261): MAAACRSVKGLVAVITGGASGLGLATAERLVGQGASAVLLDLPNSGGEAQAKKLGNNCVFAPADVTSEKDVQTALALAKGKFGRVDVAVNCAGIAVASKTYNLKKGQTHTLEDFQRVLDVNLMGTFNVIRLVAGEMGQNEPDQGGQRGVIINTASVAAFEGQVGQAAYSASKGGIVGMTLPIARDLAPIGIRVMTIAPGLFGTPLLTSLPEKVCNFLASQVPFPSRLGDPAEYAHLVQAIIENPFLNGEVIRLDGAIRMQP
# Run Description: 17β-HSD10 (ABAD) enzyme inhibition assay, NADH oxidation read at 340 nm (primary screen and dose response)
# Cond: recombinant 17βHSD10 enzyme assay
pEC50: −log10 of the molar value.

Would you please look over these solved cases?
compound="O=C(c1cocn1)N1CCC[C@H]1c1ccccc1 [S1−T10]" measured_quantity=pEC50 result="< 4.70"
compound="O=C(c1ccccc1F)N1CCCc2ccc(NCc3cnc[nH]3)cc21 [ESC1002081]" measured_quantity=pEC50 result="< 4.70"
compound="Cc1ccsc1C(=O)N1CCC[C@H]1c1ccccc1-c1cccc(S(C)(=O)=O)c1 [ESC1002322]" measured_quantity=pEC50 result="< 4.70"
compound="CC(C)CN(C(=O)c1ccccc1F)c1cccc(-n2cnnc2)c1 [ESC1002764]" measured_quantity=pEC50 result="< 4.70"

Entry CN(Cc1cnc[nH]1)c1cccc(NC(=O)c2ccccc2F)c1 [ESC1002056] under 17β-HSD10 (Homo sapiens, UniProt Q99714) had pEC50 of < 4.70
